- experimentalProtocol: AUC (0 to time) in mouse at 30 mg/kg, po
- Assay type: ADME, organism-based
- Design: dose 30 mg/kg, route oral
- assayConditions: plasma
endpointName: AUC

querySmiles	value
CN(C(=O)C(c1ccccc1)c1ccccc1)[C@H](CN1CC[C@H](O)C1)c1ccccc1	493 ng·h/mL
